// provenance: ChEMBL document CHEMBL4229423

Parameter IC50, tested on Sodium/glucose cotransporter 2 (Homo sapiens, UniProt P31639), listed per item.
Sequence (P31639 whole entry): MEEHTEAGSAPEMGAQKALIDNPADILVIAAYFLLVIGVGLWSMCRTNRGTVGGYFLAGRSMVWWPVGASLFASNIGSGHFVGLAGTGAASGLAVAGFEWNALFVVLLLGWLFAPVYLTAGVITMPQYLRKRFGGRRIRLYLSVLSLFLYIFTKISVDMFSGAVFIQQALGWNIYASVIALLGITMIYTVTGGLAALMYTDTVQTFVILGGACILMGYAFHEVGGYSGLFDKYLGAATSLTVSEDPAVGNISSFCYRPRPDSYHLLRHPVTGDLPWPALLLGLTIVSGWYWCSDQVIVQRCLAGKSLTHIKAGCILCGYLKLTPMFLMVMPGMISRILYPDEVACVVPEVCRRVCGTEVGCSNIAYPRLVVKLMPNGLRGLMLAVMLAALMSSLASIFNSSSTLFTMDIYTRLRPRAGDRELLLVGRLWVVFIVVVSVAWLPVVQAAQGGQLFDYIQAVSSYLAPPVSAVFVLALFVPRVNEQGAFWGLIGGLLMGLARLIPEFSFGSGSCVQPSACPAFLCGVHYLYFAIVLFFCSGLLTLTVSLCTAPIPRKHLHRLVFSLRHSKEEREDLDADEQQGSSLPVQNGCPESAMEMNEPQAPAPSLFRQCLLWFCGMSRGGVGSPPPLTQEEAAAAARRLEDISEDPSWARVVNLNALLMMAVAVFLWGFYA
Report only the number, with the unit nM understood.

CCOc1ccc(Cc2cc([C@@H]3S[C@H](CO)[C@@H](O)[C@H](O)[C@H]3O)c(OC)cc2C)cc1 [LUSEOGLIFLOZIN] | 2.3

# ---- query compound ----
For this compound ( CCc1ccc(Cc2ccc3c(c2)[C@]2(OC3)O[C@H](CO)[C@@H](O)[C@H](O)[C@H]2O)cc1 [TOFOGLIFLOZIN ANHYDROUS] ), measured IC50 is 4
